system.tested: Amyloid-beta precursor protein (Homo sapiens) (UniProt P05067)
Sequence (P05067 whole entry): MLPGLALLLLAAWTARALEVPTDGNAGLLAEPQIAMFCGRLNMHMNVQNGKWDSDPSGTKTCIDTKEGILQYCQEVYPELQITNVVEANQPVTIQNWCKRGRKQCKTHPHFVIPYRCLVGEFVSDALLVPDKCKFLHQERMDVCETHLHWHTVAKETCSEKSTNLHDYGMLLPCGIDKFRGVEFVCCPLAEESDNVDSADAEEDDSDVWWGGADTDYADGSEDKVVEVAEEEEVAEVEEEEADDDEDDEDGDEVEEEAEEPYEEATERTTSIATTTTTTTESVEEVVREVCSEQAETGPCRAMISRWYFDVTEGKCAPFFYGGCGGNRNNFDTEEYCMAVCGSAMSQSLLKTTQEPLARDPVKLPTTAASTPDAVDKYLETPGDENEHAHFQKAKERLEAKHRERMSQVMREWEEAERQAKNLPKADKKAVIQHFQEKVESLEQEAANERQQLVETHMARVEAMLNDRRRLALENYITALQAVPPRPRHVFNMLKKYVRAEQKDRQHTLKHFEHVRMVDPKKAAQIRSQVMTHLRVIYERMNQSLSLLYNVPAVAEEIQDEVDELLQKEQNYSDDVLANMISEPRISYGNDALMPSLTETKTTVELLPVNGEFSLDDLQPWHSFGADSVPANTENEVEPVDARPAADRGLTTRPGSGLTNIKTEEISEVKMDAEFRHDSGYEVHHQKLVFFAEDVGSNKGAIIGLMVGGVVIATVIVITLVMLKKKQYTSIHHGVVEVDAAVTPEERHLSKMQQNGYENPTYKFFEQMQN
measurement.notes: Binding affinity to amyloid beta (1 to 40) (unknown origin) by tyrosine fluorimetric titration assay
reported.metric: Ka (×10⁵ /M)
Your answer should be a plain number; it is taken to be in ×10⁵ /M.

Req: Give its Ka value. Item: "Oc1ccc(/C=C/c2cc(O)cc(O)c2)cc1"
Resp: 1.65

Req: Give its Ka value. Item: "Oc1ccc(/N=C/c2c(O)ccc3ccccc23)c(O)c1"
Resp: 2.46

###

measurement.notes: Binding affinity to Zn2+ using ZnCl2 at 20 uM after 5 mins by spectrophotometry
The source made the active and inactive calls. No cut-off for these calls is given here.
# valid calls are active, inactive; nothing else

Oc1ccc(/C=C/c2cc(O)cc(O)c2)cc1 | inactive

Req: What classification did "Oc1ccc(CNc2ccccc2O)cc1O" end up with in this test?
Resp: inactive

Req: What classification did "Oc1c(I)cc(Cl)c2cccnc12" end up with in this test?
Resp: active

Req: What classification did "Oc1cccc(CNc2ccccc2O)c1" end up with in this test?
Resp: inactive

Req: What classification did "Oc1ccc(/N=C/c2c(O)ccc3ccccc23)c(O)c1" end up with in this test?
Resp: inactive

Req: What classification did "Oc1ccccc1/N=C/c1c(O)ccc2ccccc12" end up with in this test?
Resp: inactive

Req: What classification did "Oc1ccc(CNc2ccccc2O)cc1" end up with in this test?
Resp: inactive

###

system.tested: UniProtKB P05067
measurement.notes: Inhibition of preformed self-induced amyloid beta (1 to 40) (unknown origin) fibril aggregation at 100 uM after 12 days by turbidity assay relative to control
Active and inactive are the calls of the source. The calls are words filed in the database; no cut-off is given here.
reported.metric: inhibition

Worked examples follow.
Oc1ccc(CNc2ccccc2O)cc1O | Active
Oc1ccc(/N=C/c2c(O)ccc3ccccc23)c(O)c1 | Active
Oc1ccc(CNc2ccccc2O)cc1 | Active
Oc1cccc(CNc2ccccc2O)c1 | 46%

Then this compound:
Req: Give its inhibition value. Item: "Oc1ccccc1/N=C/c1c(O)ccc2ccccc12"
Resp: 25%

###

system.tested: Amyloid-beta precursor protein (Homo sapiens) (UniProt P05067)
measurement.notes: Binding affinity to amyloid beta (1 to 40) (unknown origin) by tyrosine fluorimetric titration assay
reported.metric: Ka (×10⁵ /M)
Your answer should be a plain number; it is taken to be in ×10⁵ /M.

Oc1c(I)cc(Cl)c2cccnc12 | 3.69

Req: Query Ka on Amyloid-beta precursor protein (Homo sapiens) (UniProt P05067) for "Oc1ccccc1/N=C/c1c(O)ccc2ccccc12"
Resp: 1.91

Req: Query Ka on Amyloid-beta precursor protein (Homo sapiens) (UniProt P05067) for "Oc1cccc(CNc2ccccc2O)c1"
Resp: 1.55

Req: Query Ka on Amyloid-beta precursor protein (Homo sapiens) (UniProt P05067) for "Oc1ccc(CNc2ccccc2O)cc1"
Resp: 3.27

Req: Query Ka on Amyloid-beta precursor protein (Homo sapiens) (UniProt P05067) for "Oc1ccc(CNc2ccccc2O)cc1O"
Resp: 3.55
